molecular target: PIK3CD (Human); assay: Assessment of PIK3CD Kinase Activity
pIC50: −log10 of the molar value.
Some compounds, each annotated with its measured pIC50.

Guide cases for pIC50, answers given:
>>> df
                               smiles_entry    assay_system  property_name  result
0  C[C@H](Nc1nc(N)nc2[nH]cnc12)c1cc2cccc(C(F)(F)F)c2c(=O)n1-c1ccccc1  PIK3CD (Human)          pIC50  > 7.00
1  C[C@H](Nc1ncnc2cc(F)ccc12)c1cc2cccc(Cl)c2c(=O)n1-c1ccccc1  PIK3CD (Human)          pIC50  < 5.00
2  C[C@H](Nc1nc(N)nc2cccnc12)c1cc2cccc(-c3cnc4ccccc4c3)c2c(=O)n1-c1ccccc1  PIK3CD (Human)          pIC50  > 7.00
3  COc1nc(N[C@@H](C)c2cc3cccc(C(F)(F)F)c3c(=O)n2-c2cccc(F)c2)c2ncccc2n1  PIK3CD (Human)          pIC50  < 5.00
4  C[C@H](Nc1cc(N)ncc1C(N)=O)c1cc2cccc(Cl)c2c(=O)n1-c1ccccc1  PIK3CD (Human)          pIC50  > 7.00

Proceeding to the next compound to report its pIC50.
Prompt: Can you share its pIC50? I mean this compound: C[C@H](Nc1ncnc2cccnc12)c1cc2cccc(Cl)c2c(=O)n1-c1ccccc1
Completion: > 7.00

###

biological target: PIK3CD (Human) (UniProt O00329); assay: Assessment of PIK3CD Kinase Activity
Sequence (O00329 whole entry, looked up): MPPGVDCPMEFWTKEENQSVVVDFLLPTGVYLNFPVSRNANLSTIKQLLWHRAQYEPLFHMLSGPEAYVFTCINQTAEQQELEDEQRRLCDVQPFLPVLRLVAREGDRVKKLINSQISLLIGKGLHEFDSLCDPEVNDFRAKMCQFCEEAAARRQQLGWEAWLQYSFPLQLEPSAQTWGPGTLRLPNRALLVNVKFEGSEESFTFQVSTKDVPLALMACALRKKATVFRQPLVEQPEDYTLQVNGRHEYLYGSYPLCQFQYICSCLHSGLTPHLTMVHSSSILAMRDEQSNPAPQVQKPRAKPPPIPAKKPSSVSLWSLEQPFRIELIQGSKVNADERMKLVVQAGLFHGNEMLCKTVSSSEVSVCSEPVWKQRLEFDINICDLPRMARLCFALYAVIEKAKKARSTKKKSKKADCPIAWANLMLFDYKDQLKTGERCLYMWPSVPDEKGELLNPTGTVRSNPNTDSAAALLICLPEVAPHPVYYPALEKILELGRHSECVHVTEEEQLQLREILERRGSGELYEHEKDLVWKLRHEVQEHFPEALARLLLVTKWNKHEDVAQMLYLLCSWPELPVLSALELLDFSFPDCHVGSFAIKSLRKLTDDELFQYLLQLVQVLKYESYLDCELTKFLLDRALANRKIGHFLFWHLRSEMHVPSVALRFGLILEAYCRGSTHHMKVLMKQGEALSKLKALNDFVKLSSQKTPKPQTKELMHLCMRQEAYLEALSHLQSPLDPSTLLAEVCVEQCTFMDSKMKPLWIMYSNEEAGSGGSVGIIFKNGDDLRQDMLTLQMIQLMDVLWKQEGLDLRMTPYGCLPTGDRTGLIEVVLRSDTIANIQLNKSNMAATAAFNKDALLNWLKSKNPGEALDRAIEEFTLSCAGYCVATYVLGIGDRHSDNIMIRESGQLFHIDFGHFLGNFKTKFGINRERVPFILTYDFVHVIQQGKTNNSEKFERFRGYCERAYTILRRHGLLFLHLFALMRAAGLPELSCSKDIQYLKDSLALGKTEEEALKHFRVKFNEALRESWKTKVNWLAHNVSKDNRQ
pIC50: −log10 of the molar value.
PROPERTY NAME: pIC50

Past entries and their recorded results:
In [3]: df
Out[3]:
                               smiles_entry  property_name  result
0  Cc1ncc(-c2cccc3nc([C@H](C)Nc4nc(N)nc5cccnc45)n(-c4ccccc4)c(=O)c23)cn1          pIC50  > 7.00
1  C[C@H](Nc1ncnc2ccnn12)c1cc2cccc(Cl)c2c(=O)n1-c1cccc(F)c1          pIC50  > 7.00
2  C[C@H](Nc1ncnc2[nH]cc(F)c12)c1cc2cccc(C(F)(F)F)c2c(=O)n1-c1ccccc1          pIC50  > 7.00
3  C[C@H](Nc1c(C#N)cnc2cccnc12)c1cc2cccc(Cl)c2c(=O)n1-c1ccccc1          pIC50  < 5.00
4  C[C@H](Nc1nc(N)nc2cccnc12)c1nc2cccc(Cl)c2c(=O)n1-c1ccccc1          pIC50  > 7.00

Prompt: Param item = Cc1cn2nccc(N[C@@H](C)c3cc4cccc(C(F)(F)F)c4c(=O)n3-c3ccccc3)c2n1 ; retrieve measured pIC50.
Completion: < 5.00

Prompt: For C[C@H](Nc1ncnc2cccnc12)c1cc2scc(C(F)(F)F)c2c(=O)n1-c1ccccc1 , what is its reported pIC50?
Completion: > 7.00

Prompt: Entry under review: C[C@H](Nc1ccnc2ccnn12)c1cc2cccc(-c3cnn(C)c3)c2c(=O)n1C1CC1 . Reported pIC50?
Completion: > 7.00

Prompt: Returns the measured pIC50 for the input molecule. Input: C[C@H](NCc1cccnc1N)c1cc2cccc(Cl)c2c(=O)n1-c1ccccc1
Completion: < 5.00

###

target: PIK3CA (human); assay: Assessment of PIK3CA Kinase Activity
IC50 values by entry

Known results for compounds:
>>> print(df.to_string())
                                   compound  property_name       result
0  C[C@H](Nc1nc(O)nc2[nH]cnc12)c1cc2cccc(C(F)(F)F)c2c(=O)n1-c1cccc(F)c1           IC50      > 10 µM
1  COc1ncc(-c2cccc3cc([C@H](C)Nc4nc(N)nc5cccnc45)n(-c4cccc(F)c4)c(=O)c23)cn1           IC50      > 10 µM
2  C[C@H](Nc1nc(N)nc2nccnc12)c1cc2cccc(Cl)c2c(=O)n1-c1ccccc1           IC50      > 10 µM
3  Cc1cncc(-c2cccc3cc([C@H](C)Nc4nc(N)nc5cccnc45)n(-c4ccccc4)c(=O)c23)c1           IC50  0.1 to 1 µM
4  C[C@H](Nc1nc(N)nc2cccnc12)c1nc2cccc(Cl)c2c(=O)n1-c1ccccc1           IC50  0.1 to 1 µM
5  COc1ncc(-c2cccc3cc([C@H](C)Nc4cc(O)nc5cccnc45)n(-c4ccccc4)c(=O)c23)cn1           IC50      > 10 µM

Prompt: Need IC50 of Cc1ccnc2cc(C(C)Nc3ncnc4cccnc34)n(-c3ccccc3)c(=O)c12 (stereo not drawn) , thanks.
Completion: > 10 µM

Prompt: Data request, read-out IC50, for C[C@H](Nc1nc(N)ncc1C(F)(F)F)c1cc2cccc(C(F)(F)F)c2c(=O)n1-c1ccccc1
Completion: > 10 µM

Prompt: Consider the compound C[C@H](Nc1ncc(C(F)(F)F)c(N)n1)c1cc2cccc(Cl)c2c(CCN2CCOCC2)n1 and give its measured IC50.
Completion: > 10 µM

###

As a worked illustration, we turn to pIC50 data collected for PIK3CB (Human) (UniProt P42338).
pIC50: −log10 of the molar value.

>>> print(df.to_string())
                                   compound  property_name        result
0  C[C@H](Nc1ccnc2ccnn12)c1cc2cccc(Cl)c2c(=O)n1C1CC1          pIC50  6.00 to 7.00
1  COc1ncc(-c2cccc3cc([C@H](C)Nc4ncnc5cccnc45)n(-c4ccccc4)c(=O)c23)cn1          pIC50        < 5.00
2  C[C@H](Nc1nc(N)nc2[nH]cnc12)c1cc2cccc(C(F)(F)F)c2c(=O)n1-c1ccccc1          pIC50        > 7.00
3  C[C@H](Nc1cc(Cl)nn2ccnc12)c1cc2cccc(-c3cnn(C)c3)c2c(=O)n1C1CC1          pIC50        < 5.00

Prompt: Any idea what its pIC50 is? The compound is C[C@H](Nc1nc(N)nc2cccnc12)c1cc2cccc(-c3ccnnc3)c2c(=O)n1-c1cccc(F)c1
Completion: < 5.00

Prompt: Query: pIC50; subject: Cc1ccnc2cc(C(C)Nc3ncnc4cccnc34)[nH]c(=O)c12 (stereo not drawn)
Completion: < 5.00

Prompt: I am curious: what pIC50 value has been reported for C[C@H](Nc1nc(Cl)nc2nccnc12)c1cc2cccc(Cl)c2c(=O)n1-c1ccccc1 ?
Completion: < 5.00

Prompt: Dear colleague, I am looking for the recorded pIC50 of the following compound: C[C@H](Nc1ncc(C(F)(F)F)c(N)n1)c1cc2cccc(Cl)c2c(CCN2CCOCC2)n1
Completion: < 5.00

Prompt: Item under review: C[C@H](Nc1ncnc2cccnc12)c1cc2cccc(-c3cnn(C)c3)c2c(=O)n1-c1cccc(F)c1 . Reported pIC50?
Completion: < 5.00

Prompt: Find the recorded pIC50 belonging to C[C@H](Nc1ncnc2cccnc12)c1cc2cccc(Cl)c2c(=O)n1CCN1CCCC1 and report it.
Completion: 6.00 to 7.00

Prompt: Bench note: what pIC50 did Cc1cn2nccc(N[C@@H](C)c3cc4cccc(Cl)c4c(=O)n3-c3ccccc3)c2n1 show?
Completion: < 5.00

Prompt: Quick one: pIC50 of C[C@H](Nc1ncnc2cccnc12)c1cc2cccc(Cl)c2c(=O)n1-c1cccc(F)c1 ?
Completion: 6.00 to 7.00

Prompt: Look up pIC50 for this compound: C[C@H](Nc1nc(Cl)nc2nc(Cl)cnc12)c1cc2cccc(Cl)c2c(=O)n1-c1ccccc1
Completion: < 5.00

Prompt: Need pIC50 of COc1nc(N[C@@H](C)c2cc3cccc(C(F)(F)F)c3c(=O)n2-c2cccc(F)c2)c2ncccc2n1 , thanks.
Completion: < 5.00

Prompt: Entry C[C@H](Nc1ncnc(N)c1C#N)c1cc2cccc(C(F)(F)F)c2c(=O)n1-c1cccc(F)c1 has what pIC50?
Completion: 6.00 to 7.00

Prompt: Can you look up the measured pIC50 of Cc1cn2nccc(N[C@@H](C)c3cc4cccc(Cl)c4c(=O)n3-c3cccc(F)c3)c2n1 for me?
Completion: < 5.00

Prompt: Look up pIC50 for this compound: C[C@H](Nc1ncnc2cccnc12)c1cc2cccc(Cl)c2c(=O)n1-c1ccccc1
Completion: 6.00 to 7.00

Prompt: Look at this compound and give its reported pIC50. C[C@H](Nc1nc(N)nc2cccnc12)c1nc2cccc(-c3ccnnc3)c2c(=O)n1-c1ccccc1
Completion: < 5.00

###

target: PIK3CB (Human)
PROPERTY NAME: IC50

In [3]: df
Out[3]:
                               smiles_entry       result
0  C[C@H](Nc1nc(N)ncc1C#N)c1cc2cccc(C(F)(F)F)c2c(=O)n1-c1ccccc1  0.1 to 1 µM
1  C[C@H](Nc1ccnn2ccnc12)c1cc2scc(-c3cnn(C)c3)c2c(=O)n1-c1ccccc1      > 10 µM
2  C[C@H](Nc1cc(Cl)nn2ccnc12)c1cc2cccc(C(F)(F)F)c2c(=O)n1-c1cccc(F)c1      > 10 µM
3  COc1nc(N[C@@H](C)c2cc3cccc(Cl)c3c(=O)n2-c2ccccc2)c2ncccc2n1      > 10 µM
4  C[C@H](Nc1ccnc2ccnn12)c1cc2scc(-c3cnn(C)c3)c2c(=O)n1-c1ccccc1      > 10 µM

Prompt: I'm curious: which IC50 was measured for C[C@H](Nc1ccnc2ccnn12)c1cc2cccc(C(F)(F)F)c2c(=O)n1-c1ccccc1 tested on PIK3CB (Human)?
Completion: 0.1 to 1 µM

Prompt: Quick check: IC50 on PIK3CB (Human), item Cc1cc(-c2cccc3cc([C@H](C)Nc4ncnc5cccnc45)n(-c4ccccc4)c(=O)c23)cnc1C ?
Completion: > 10 µM

Prompt: Requested read-out IC50, target or system PIK3CB (Human), entry COc1ncc(-c2cccc3cc([C@H](C)Nc4nc(O)nc5cccnc45)n(-c4ccccc4)c(=O)c23)cn1
Completion: > 10 µM

Prompt: IC50 of C[C@H](Nc1ncnc(N)n1)c1cc2cccc(Cl)c2c(=O)n1-c1cccc(F)c1 on PIK3CB (Human)?
Completion: > 10 µM

Prompt: Could you share what IC50 was measured for C[C@H](Nc1ncnc2[nH]cc(C(N)=O)c12)c1cc2cccc(C(F)(F)F)c2c(=O)n1-c1ccccc1 , tested on PIK3CB (Human)?
Completion: 0.1 to 1 µM
